Source: patent US8507010B2

MEASUREMENT PROTOCOL: Test on the drug absorption in SD rat, intravenous injection (iv)
Format: in vivo
CONDITION DESCRIPTION: male, 5 mg/kg, plasma
OBSERVABLE: Tmax (min)
Unit min implied. Number only.

INPUT: Could you share which Tmax value was measured for C=CC(=O)Nc1ccc2ncnc(Nc3ccc(OCc4cccc(F)c4)c(Cl)c3)c2c1.Cc1ccc(S(=O)(=O)O)cc1 [p-toluene sulfonate] ?
OUTPUT: 4.98

###

MEASUREMENT PROTOCOL: in vivo
CONDITION DESCRIPTION: male, SD, rat, po, 30 mg/kg, T1/2
OBSERVABLE: half-life (h)
Unit h implied. Number only.

INPUT: Could you share which half-life value was measured for C=CC(=O)Nc1ccc2ncnc(Nc3ccc(OCc4cccc(F)c4)c(Cl)c3)c2c1.Cc1ccc(S(=O)(=O)O)cc1 [Crystalline form C] ?
OUTPUT: 1.27
